// Kd lookup, one value per entry
- experimentalSystem: FGFR3 (Homo sapiens)
- Construct: made in house; host or cells: E. coli (BL21-derived) infected with T7 phage
- assaySummary: Kinase binding assay (Kd), kinase-tagged T7 phage, affinity beads, qPCR
- details: in vitro binding assay, 11-point 3-fold dilution series

Please review the following examples before continuing.
C=CC(=O)N1CCC2(CC1)CC(n1cc(-c3cc(O[C@@H](CO)c4ccc(F)cn4)c4c(C#N)cnn4c3)cn1)C2; 100 to 250 nM
C=CC(=O)N1CCC2(CC1)CC(n1ncc(-c3cc(OC(CO)c4ccnn4C)c4c(C#N)cnn4c3)c1C)C2 (stereo not drawn); 100 to 250 nM
C=CC(=O)N1CC(F)(C(=O)N2CCC(n3nnc(-c4cc(O[C@@H](CO)c5ccccn5)c5c(C#N)cnn5c4)c3C)CC2)C1 (single isomer, unassigned); 100 to 250 nM

Recorded Kd (compound `C=CC(=O)N1CC(C(=O)N2CCC(n3nnc(-c4cc(O[C@@H](CO)c5ccccn5)c5c(C#N)cnn5c4)c3C)CC2)C1` ): 100 to 250 nM

Recorded Kd (compound C=CC(=O)N1CCC2(CC1)CC(n1ncc(-c3cc(OC(CO)c4cncc5ccccc45)c4c(C#N)cnn4c3)c1C)C2 (stereo not drawn) ): 0.1 to 100 nM

Recorded Kd (compound `C=CC(=O)N1CCC2(CC1)CC(n1ncc(-c3cc(O[C@@H](CO)c4ccccn4)c4c(C#N)cnn4c3)c1C)C2` ): 100 to 250 nM

* * *

- experimentalSystem: FGFR2 (Homo sapiens)
- Construct: made in house; host or cells: E. coli (BL21-derived) infected with T7 phage
- Sequence (P21802 22-821): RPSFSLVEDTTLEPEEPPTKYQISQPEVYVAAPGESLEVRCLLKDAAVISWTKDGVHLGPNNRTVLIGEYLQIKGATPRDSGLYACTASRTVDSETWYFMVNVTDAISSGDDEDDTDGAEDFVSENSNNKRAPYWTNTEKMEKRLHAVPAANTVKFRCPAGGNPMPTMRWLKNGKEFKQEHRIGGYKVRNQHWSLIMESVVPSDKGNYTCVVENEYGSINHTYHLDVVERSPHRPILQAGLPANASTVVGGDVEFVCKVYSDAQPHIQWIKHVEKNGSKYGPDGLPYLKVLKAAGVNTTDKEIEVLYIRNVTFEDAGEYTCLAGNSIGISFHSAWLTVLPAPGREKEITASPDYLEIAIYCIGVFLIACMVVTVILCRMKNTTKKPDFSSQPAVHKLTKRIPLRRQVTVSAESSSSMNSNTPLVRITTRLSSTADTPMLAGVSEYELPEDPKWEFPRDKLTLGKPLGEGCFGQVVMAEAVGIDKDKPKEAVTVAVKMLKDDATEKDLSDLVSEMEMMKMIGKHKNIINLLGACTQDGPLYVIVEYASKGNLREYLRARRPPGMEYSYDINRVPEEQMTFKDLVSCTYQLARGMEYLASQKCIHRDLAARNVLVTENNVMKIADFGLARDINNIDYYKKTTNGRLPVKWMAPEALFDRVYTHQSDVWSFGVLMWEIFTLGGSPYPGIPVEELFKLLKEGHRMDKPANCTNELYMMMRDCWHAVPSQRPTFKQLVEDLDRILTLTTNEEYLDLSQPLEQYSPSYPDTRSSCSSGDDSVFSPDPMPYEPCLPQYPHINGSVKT
- assaySummary: Kinase binding assay (Kd), kinase-tagged T7 phage, affinity beads, qPCR
- details: in vitro binding assay, 11-point 3-fold dilution series
// Kd lookup, one value per entry

Please review the following examples before continuing.
C=CC(=O)N1CC(F)(C(=O)N2CCC(n3nnc(-c4cc(O[C@H](CO)c5ccccn5)c5c(C#N)cnn5c4)c3C)CC2)C1 (single isomer, unassigned) [Example 20]; 0.1 to 100 nM
C=CC(=O)N1CC(F)(C(=O)N2CCC(n3nnc(-c4cc(O[C@@H](CO)c5ccccn5)c5c(C#N)cnn5c4)c3C)CC2)C1 (single isomer, unassigned) [Example 19]; 250 to 1000 nM

// moving on: another record for Kd
Recorded Kd (compound C=CC(=O)N1CCC2(CC1)CC(n1nnc(-c3cc(O[C@@H](CO)c4ccc(F)cn4)c4c(C#N)cnn4c3)c1C)C2 [Example 12] ): 250 to 1000 nM

* * *

// Kd lookup, one value per entry
- experimentalSystem: FGFR2 (Homo sapiens)
- Construct: made in house; host or cells: E. coli (BL21-derived) infected with T7 phage
- assaySummary: Kinase binding assay (Kd), kinase-tagged T7 phage, affinity beads, qPCR
- details: in vitro binding assay, 11-point 3-fold dilution series

CCC(=O)N1CC(C(=O)N2CCC(n3nnc(-c4cc(OC(CO)c5ccccn5)c5c(C#N)cnn5c4)c3C)CC2)C1 (stereo not shown); 0.1 to 100 nM
C=CC(=O)N1CCC2(CC1)CC(n1ncc(-c3cc(O[C@H](CO)c4ccc(F)cn4)c4c(C#N)cnn4c3)c1C)C2; 0.1 to 100 nM
C=CC(=O)N1CCC2(CC1)CC(n1ncc(-c3cc(O[C@@H](CO)c4ccc(F)cn4)c4c(C#N)cnn4c3)c1C)C2; 250 to 1000 nM

// moving on: another record for Kd
Recorded Kd (molecule `C=CC(=O)N1CCC(n2ncc(-c3cc(O[C@@H](CO)c4ccc(F)cn4)c4c(C#N)cnn4c3)c2C)CC1` ): 250 to 1000 nM

* * *

// Kd lookup, one value per entry
- experimentalSystem: FGFR3 (V555M) (Homo sapiens, UniProt P22607, V555M)
- Construct: made in house; host or cells: E. coli (BL21-derived) infected with T7 phage
- Sequence (P22607 23-806 V555M): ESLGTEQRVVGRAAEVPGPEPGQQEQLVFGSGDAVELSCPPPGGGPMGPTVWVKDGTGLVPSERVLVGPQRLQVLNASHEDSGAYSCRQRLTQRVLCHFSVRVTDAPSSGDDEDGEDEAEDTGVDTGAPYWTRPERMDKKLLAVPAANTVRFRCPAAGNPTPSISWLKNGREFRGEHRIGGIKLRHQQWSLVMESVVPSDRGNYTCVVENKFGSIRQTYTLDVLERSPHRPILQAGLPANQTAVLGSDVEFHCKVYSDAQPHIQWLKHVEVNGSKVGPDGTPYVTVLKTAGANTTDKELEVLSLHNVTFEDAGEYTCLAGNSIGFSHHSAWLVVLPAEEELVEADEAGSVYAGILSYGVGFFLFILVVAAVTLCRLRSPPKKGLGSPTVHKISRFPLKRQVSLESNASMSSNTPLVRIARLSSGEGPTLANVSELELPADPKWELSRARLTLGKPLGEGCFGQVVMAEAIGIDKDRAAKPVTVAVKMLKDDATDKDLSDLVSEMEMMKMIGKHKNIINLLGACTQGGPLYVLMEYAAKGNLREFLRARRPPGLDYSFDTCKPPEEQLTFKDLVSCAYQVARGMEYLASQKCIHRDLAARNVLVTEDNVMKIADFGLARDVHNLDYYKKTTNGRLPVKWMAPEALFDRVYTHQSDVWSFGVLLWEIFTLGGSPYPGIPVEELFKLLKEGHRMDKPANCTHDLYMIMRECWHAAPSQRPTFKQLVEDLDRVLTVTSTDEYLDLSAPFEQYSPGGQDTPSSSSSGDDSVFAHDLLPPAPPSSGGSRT
- assaySummary: Kinase binding assay (Kd), kinase-tagged T7 phage, affinity beads, qPCR
- details: in vitro binding assay, 11-point 3-fold dilution series

Please review the following examples before continuing.
C=CC(=O)N1CCC2(CC1)CC(n1ncc(-c3cc(O[C@@H](CO)c4ccccn4)c4c(C#N)cnn4c3)c1C)C2; 250 to 1000 nM
C=CC(=O)N1CC(OC)(C(=O)N2CCC(n3nnc(-c4cc(O[C@@H](CO)c5ccccn5)c5c(C#N)cnn5c4)c3C)CC2)C1; 250 to 1000 nM
COC1(C(=O)N2CCC(n3nnc(-c4cc(OC(CO)c5ccccn5)c5c(C#N)cnn5c4)c3C)CC2)CN(C(=O)/C=C/CN(C)C)C1 (stereo not drawn); 0.1 to 100 nM

Recorded Kd (compound C=CC(=O)N1CCC2(CC1)CC(n1ncc(-c3cc(OC(CO)c4ccnn4C)c4c(C#N)cnn4c3)c1C)C2 (stereo not drawn) ): 100 to 250 nM

Recorded Kd (compound `C=CC(=O)N1CCC(n2ncc(-c3cc(O[C@H](CO)c4ccc(F)cn4)c4c(C#N)cnn4c3)c2C)CC1` ): 0.1 to 100 nM

Recorded Kd (compound C=CC(=O)N1CC(C(=O)N2CCC(n3nnc(-c4cc(O[C@H](CO)c5ccccn5)c5c(C#N)cnn5c4)c3C)CC2)C1 (single isomer, unassigned) ): 0.1 to 100 nM

* * *

// Kd lookup, one value per entry
- experimentalSystem: FGFR2 (Homo sapiens)
- Construct: made in house; host or cells: E. coli (BL21-derived) infected with T7 phage
- assaySummary: Kinase binding assay (Kd), kinase-tagged T7 phage, affinity beads, qPCR
- details: in vitro binding assay, 11-point 3-fold dilution series

Please review the following examples before continuing.
C=CC(=O)N1CCC2(CC1)CC(n1ncc(-c3cc(O[C@H](CO)c4ccccn4)c4c(C#N)cnn4c3)c1C)C2 [Example 8]; 0.1 to 100 nM
C=CC(=O)N1CCC2(CC1)CC(n1nnc(-c3cc(O[C@H](CO)c4ccc(F)cn4)c4c(C#N)cnn4c3)c1C)C2 [Example 13]; 0.1 to 100 nM

// moving on: another record for Kd
Recorded Kd (compound C=CC(=O)N1CC(C(=O)N2CCC(n3nnc(-c4cc(O[C@H](CO)c5ccccn5)c5c(C#N)cnn5c4)c3C)CC2)C1 (single isomer, unassigned) [Example 18] ): 0.1 to 100 nM

* * *

- experimentalSystem: FGFR2 (Homo sapiens)
- Construct: made in house; host or cells: E. coli (BL21-derived) infected with T7 phage
- assaySummary: Kinase binding assay (Kd), kinase-tagged T7 phage, affinity beads, qPCR
- details: in vitro binding assay, 11-point 3-fold dilution series
testReadout: Kd

Please review the following examples before continuing.
CCC(=O)N1CCC2(CC1)CC(n1cc(-c3cc(O[C@H](CO)c4ccc(F)cn4)c4c(C#N)cnn4c3)cn1)C2; 0.1 to 100 nM
C=CC(=O)N1CC(OC)(C(=O)N2CCC(n3nnc(-c4cc(O[C@@H](CO)c5ccccn5)c5c(C#N)cnn5c4)c3C)CC2)C1; 250 to 1000 nM
C=CC(=O)N1CCC(n2ncc(-c3cc(O[C@H](CO)c4ccc(F)cn4)c4c(C#N)cnn4c3)c2C)CC1; 0.1 to 100 nM
C=CC(=O)N1CC(OC)(C(=O)N2CCC(n3nnc(-c4cc(O[C@H](CO)c5ccccn5)c5c(C#N)cnn5c4)c3C)CC2)C1; 0.1 to 100 nM
C=CC(=O)N1CCC2(CC1)CC(n1ncc(-c3cc(OC(CO)c4ccn(C)n4)c4c(C#N)cnn4c3)c1C)C2 (stereo not shown); 0.1 to 100 nM
CCC(=O)N1CCC2(CC1)CC(n1cc(-c3cc(O[C@@H](CO)c4ccc(F)cn4)c4c(C#N)cnn4c3)cn1)C2; 100 to 250 nM

// moving on: another record for Kd
Recorded Kd (molecule `C=CC(=O)N1CCC2(CC1)CC(n1ncc(-c3cc(O[C@@H](CO)c4ccccn4)c4c(C#N)cnn4c3)c1C)C2` ): 100 to 250 nM

* * *

- experimentalSystem: FGFR3 (Homo sapiens, UniProt P22607)
- Construct: made in house; host or cells: E. coli (BL21-derived) infected with T7 phage
- Sequence (P22607 23-806): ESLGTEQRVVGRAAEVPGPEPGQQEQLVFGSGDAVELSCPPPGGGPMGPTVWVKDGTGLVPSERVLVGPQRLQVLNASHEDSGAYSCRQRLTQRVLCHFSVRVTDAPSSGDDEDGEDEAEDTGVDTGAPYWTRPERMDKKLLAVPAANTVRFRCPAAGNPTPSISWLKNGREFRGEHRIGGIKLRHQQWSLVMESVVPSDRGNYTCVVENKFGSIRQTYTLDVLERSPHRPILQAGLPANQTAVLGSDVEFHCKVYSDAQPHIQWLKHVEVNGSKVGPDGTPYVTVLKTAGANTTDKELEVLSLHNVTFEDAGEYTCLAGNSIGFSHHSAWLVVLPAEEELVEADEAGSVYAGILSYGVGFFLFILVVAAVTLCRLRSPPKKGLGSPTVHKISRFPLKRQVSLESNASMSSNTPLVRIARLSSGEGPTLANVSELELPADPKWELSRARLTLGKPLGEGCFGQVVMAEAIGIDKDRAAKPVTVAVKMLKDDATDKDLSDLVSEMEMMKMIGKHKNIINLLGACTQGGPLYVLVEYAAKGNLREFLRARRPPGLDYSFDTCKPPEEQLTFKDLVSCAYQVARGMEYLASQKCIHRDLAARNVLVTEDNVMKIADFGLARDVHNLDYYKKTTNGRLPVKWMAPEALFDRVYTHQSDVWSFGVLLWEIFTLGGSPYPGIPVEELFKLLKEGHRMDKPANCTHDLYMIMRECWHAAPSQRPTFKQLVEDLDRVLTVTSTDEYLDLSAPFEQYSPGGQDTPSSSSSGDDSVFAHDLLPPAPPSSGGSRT
- assaySummary: Kinase binding assay (Kd), kinase-tagged T7 phage, affinity beads, qPCR
- details: in vitro binding assay, 11-point 3-fold dilution series
testReadout: Kd

Please review the following examples before continuing.
C=CC(=O)N1CCC2(CC1)CC(n1ncc(-c3cc(OC(CO)c4ccn(C)n4)c4c(C#N)cnn4c3)c1C)C2 (centres unmarked); 0.1 to 100 nM
C=CC(=O)N1CCC2(CC1)CC(n1ncc(-c3cc(O[C@H](CO)c4ccccn4)c4c(C#N)cnn4c3)c1C)C2; 0.1 to 100 nM
C=CC(=O)N1CCC2(CC1)CC(n1ncc(-c3cc(OC(CO)c4ccccn4)c4c(Cl)cnn4c3)c1C)C2 (single isomer, unassigned); 0.1 to 100 nM
C=CC(=O)N1CC(OC)(C(=O)N2CCC(n3nnc(-c4cc(O[C@H](CO)c5ccccn5)c5c(C#N)cnn5c4)c3C)CC2)C1; 0.1 to 100 nM

Recorded Kd (compound `C=CC(=O)N1CCC(n2ncc(-c3cc(O[C@H](CO)c4ccc(F)cn4)c4c(C#N)cnn4c3)c2C)CC1` ): 0.1 to 100 nM

Recorded Kd (compound C#CC(=O)N1CC(OC)(C(=O)N2CCC(n3nnc(-c4cc(OC(CO)c5ccccn5)c5c(C#N)cnn5c4)c3C)CC2)C1 (centres unmarked) ): 0.1 to 100 nM
